Ref: patent US12275734B1

test system: S. enterica ATCC14028; assay: MIC, broth microdilution; format: cell-based; conditions: Salmonella enterica; S. enterica ATCC14028; read-out: Minimum inhibitory concentration S.e.^g
Quick rule for you: MIC under 8 µg/mL gets 1, anything else gets 0.

The following molecules have reported results that may help.
1) C=C[C@]1(C)C[C@@H](OC(=O)CSc2nc3cc[n+](Cc4ccc(C)cc4)cc3[nH]2)[C@]2(C)[C@H](C)CC[C@]3(CCC(=O)[C@H]32)[C@@H](C)[C@@H]1O [Compound i]: 1
2) C=C[C@]1(C)C[C@@H](OC(=O)CSc2nc3cc[n+](Cc4cc(C)cc(C)c4)cc3[nH]2)[C@]2(C)[C@H](C)CC[C@]3(CCC(=O)[C@H]32)[C@@H](C)[C@@H]1O [Compound l]: 0
3) C=C[C@]1(C)C[C@@H](OC(=O)CSc2nc3cc[n+](Cc4ccc(C(F)(F)F)cc4)cc3[nH]2)[C@]2(C)[C@H](C)CC[C@]3(CCC(=O)[C@H]32)[C@@H](C)[C@@H]1O [Compound b]: 0
4) C=C[C@]1(C)C[C@@H](OC(=O)CSc2nc3cc[n+](Cc4ccc(Br)cc4)cc3[nH]2)[C@]2(C)[C@H](C)CC[C@]3(CCC(=O)[C@H]32)[C@@H](C)[C@@H]1O [Compound a]: 1
5) C=C[C@]1(C)C[C@@H](OC(=O)CSc2nc3cc[n+](Cc4cc(F)ccc4C#N)cc3[nH]2)[C@]2(C)[C@H](C)CC[C@]3(CCC(=O)[C@H]32)[C@@H](C)[C@@H]1O [Compound m]: 0
6) C=C[C@]1(C)C[C@@H](OC(=O)CSc2nc3cc[n+](Cc4ccc([N+](=O)[O-])cc4)cc3[nH]2)[C@]2(C)[C@H](C)CC[C@]3(CCC(=O)[C@H]32)[C@@H](C)[C@@H]1O [Compound f]: 1

Problem: Answer whether the molecule C=C[C@]1(C)C[C@@H](OC(=O)CSc2nc3cc[n+](Cc4cc(OC)cc(OC)c4)cc3[nH]2)[C@]2(C)[C@H](C)CC[C@]3(CCC(=O)[C@H]32)[C@@H](C)[C@@H]1O [Compound n] has MIC strictly less than 8 µg/mL
Solution: 0

Problem: Answer whether the molecule C=C[C@]1(C)C[C@@H](OC(=O)CSc2nc3cc[n+](Cc4ccc(F)cc4)cc3[nH]2)[C@]2(C)[C@H](C)CC[C@]3(CCC(=O)[C@H]32)[C@@H](C)[C@@H]1O [Compound c] has MIC strictly less than 8 µg/mL
Solution: 0

Problem: Answer whether the molecule C=C[C@]1(C)C[C@@H](OC(=O)CSc2nc3cc[n+](Cc4ccc(C(C)(C)C)cc4)cc3[nH]2)[C@]2(C)[C@H](C)CC[C@]3(CCC(=O)[C@H]32)[C@@H](C)[C@@H]1O [Compound k] has MIC strictly less than 8 µg/mL
Solution: 0
